# Test system: HOP-62 NSCLC
# ASSAY TEXT: NCI-60 one-dose screen, 48 h (100 = growth as untreated, 0 = no growth, -100 = all killed)
# CONDITION PARAMETERS: 10 µM unless noted
This is part of a sample that, as a whole, favours compounds with a hit. Of some 83,000 tested, about 20% had one in any assay.
READOUT LABEL: growth (%)

[[record]]
compound = "OCCCc1ccccc1"
result_value = 101

[[record]]
compound = "COC(=O)c1nc(=S)[nH]c(C(=O)OC)c1C(=O)c1ccccc1"
result_value = 113

[[record]]
compound = "COc1ccc2oc3c(ccc[n+]3C)c(=O)c2c1"
result_value = 80.5

[[record]]
compound = "COc1ccc(S(=O)(=O)c2ccc(F)cc2)cc1"
result_value = 109

[[record]]
compound = "O=C1c2ccccc2CN1c1ccccc1"
result_value = 107

[[record]]
compound = "O=S(=O)(O)c1ccc2cc(O)ccc2c1"
result_value = 99.7

[[record]]
compound = "CCOP(C)(=O)/C(Cc1ccc(OC)c(OC)c1)=N\\O (stereo not drawn)"
result_value = 98.7

[[record]]
compound = "CC(=O)c1cc2ccccc2o1"
result_value = 99.7

[[record]]
compound = "COC(=O)C(Cc1cn(C(C)=O)c2ccccc12)P(=O)(OC)OC (stereo not drawn)"
result_value = 93.3

[[record]]
compound = "COC(=O)c1ccccc1Cl"
result_value = 98.3

[[record]]
compound = "COCCCNC1=C(C#N)C(=O)NC(c2cccs2)S1 (stereo not drawn)"
result_value = 99.9

[[record]]
compound = "O=P(O)(O)OC1C(OP(=O)(O)O)C(OP(=O)(O)O)C(OP(=O)(O)O)C(OP(=O)(O)O)C1OP(=O)(O)O.[Cu+2] (stereo not drawn)"
result_value = 114

[[record]]
compound = "S=c1nn[nH]n1C1CCCCC1"
result_value = 126

